For each record, write down the corresponding IC50.
Target: UniProtKB P49327
Sequence (P49327 whole entry): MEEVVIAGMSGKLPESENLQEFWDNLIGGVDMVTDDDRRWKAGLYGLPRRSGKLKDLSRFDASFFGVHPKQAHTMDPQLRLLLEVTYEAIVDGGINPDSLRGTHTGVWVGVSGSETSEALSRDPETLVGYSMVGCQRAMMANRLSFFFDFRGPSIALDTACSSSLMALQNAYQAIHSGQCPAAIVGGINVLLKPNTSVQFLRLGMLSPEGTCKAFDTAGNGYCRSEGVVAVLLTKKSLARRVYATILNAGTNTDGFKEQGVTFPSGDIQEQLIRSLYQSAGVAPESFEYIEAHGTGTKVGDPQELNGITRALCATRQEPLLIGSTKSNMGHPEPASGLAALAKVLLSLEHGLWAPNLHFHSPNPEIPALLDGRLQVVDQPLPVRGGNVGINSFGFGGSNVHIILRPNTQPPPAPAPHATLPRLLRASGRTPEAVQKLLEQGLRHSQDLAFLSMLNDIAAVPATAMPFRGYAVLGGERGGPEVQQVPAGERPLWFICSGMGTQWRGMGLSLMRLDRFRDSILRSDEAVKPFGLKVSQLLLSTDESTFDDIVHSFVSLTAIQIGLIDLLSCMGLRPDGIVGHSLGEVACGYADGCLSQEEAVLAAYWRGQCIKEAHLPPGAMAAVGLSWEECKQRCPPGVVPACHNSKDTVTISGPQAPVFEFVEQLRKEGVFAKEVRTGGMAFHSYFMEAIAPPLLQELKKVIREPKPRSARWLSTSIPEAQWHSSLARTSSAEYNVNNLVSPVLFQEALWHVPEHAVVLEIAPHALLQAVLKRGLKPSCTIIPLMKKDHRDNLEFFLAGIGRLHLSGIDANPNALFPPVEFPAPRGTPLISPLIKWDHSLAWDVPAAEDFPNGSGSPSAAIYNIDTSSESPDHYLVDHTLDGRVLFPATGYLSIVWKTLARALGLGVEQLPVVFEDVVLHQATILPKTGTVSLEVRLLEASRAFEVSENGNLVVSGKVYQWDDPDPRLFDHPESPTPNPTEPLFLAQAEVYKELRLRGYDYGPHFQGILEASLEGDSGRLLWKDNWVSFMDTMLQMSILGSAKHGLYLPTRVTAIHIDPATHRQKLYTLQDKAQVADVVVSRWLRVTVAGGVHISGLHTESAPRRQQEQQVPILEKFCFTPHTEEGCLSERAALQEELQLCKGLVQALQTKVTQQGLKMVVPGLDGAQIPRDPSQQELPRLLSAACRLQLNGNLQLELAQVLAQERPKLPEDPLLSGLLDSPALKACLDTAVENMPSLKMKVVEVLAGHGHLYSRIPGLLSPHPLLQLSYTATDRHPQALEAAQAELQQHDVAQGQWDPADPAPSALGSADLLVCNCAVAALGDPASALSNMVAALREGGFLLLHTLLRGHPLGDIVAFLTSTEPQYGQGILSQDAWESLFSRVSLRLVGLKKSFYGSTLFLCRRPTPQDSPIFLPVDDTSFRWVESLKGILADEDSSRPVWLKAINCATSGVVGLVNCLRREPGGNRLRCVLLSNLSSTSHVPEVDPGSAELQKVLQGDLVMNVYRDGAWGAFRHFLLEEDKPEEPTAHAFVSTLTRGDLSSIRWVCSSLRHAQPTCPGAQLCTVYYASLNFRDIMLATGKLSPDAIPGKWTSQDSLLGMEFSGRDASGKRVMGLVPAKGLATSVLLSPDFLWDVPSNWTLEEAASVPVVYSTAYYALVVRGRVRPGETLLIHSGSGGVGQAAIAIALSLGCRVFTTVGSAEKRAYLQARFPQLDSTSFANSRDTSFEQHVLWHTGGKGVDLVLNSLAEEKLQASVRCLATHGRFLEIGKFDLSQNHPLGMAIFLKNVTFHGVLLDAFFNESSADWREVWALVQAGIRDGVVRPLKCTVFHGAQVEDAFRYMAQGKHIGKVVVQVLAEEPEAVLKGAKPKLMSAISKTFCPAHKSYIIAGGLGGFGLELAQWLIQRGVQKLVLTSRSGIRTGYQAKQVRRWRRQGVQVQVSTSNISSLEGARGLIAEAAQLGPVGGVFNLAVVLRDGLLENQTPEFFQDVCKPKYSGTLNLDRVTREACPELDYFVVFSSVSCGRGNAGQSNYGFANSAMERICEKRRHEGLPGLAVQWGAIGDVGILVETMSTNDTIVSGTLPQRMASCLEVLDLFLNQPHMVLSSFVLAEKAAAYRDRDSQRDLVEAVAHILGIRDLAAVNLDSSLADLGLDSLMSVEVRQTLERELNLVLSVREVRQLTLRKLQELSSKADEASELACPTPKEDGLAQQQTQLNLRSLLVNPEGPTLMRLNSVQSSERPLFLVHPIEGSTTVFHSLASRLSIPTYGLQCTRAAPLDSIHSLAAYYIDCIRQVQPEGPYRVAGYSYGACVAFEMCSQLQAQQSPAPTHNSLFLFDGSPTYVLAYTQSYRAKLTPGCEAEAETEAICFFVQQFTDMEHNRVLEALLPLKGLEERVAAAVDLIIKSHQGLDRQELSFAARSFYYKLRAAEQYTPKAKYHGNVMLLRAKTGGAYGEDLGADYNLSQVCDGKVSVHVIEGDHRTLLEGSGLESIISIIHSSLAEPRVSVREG
Assay: inhibition of human FAS-TE enzyme activity – biochemical, endpoint fluorescence intensity, uHTS hits, dose response (AID 624327);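 note: fluorescence from hydrolysis of an O-methyl fluorescein acyl ester substrate by the enzyme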
Format: functional
Calls of active or inactive are those of the source. Cut-off read from the data, not from the text of the source: active = IC50 of 20 µM or less and inactive = more.

Please look up its IC50: COc1ccc(C2(CNC(=O)c3cccc([N+](=O)[O-])c3)CCCCC2)cc1OC 14.9 µM (active)

Please look up its IC50: COc1cc2ncc(S(=O)(=O)c3ccccc3)c(N3CCC4(CC3)OCCO4)c2cc1OC 2.55 µM (active)

Please look up its IC50: O=[N+]([O-])c1ccc(CSc2ccc(S(=O)(=O)N3CCOCC3)cn2)cc1 13.4 µM (active)

Please look up its IC50: CN(C)S(=O)(=O)c1cccc(NC(=O)c2cc([N+](=O)[O-])ccc2N2CCCCC2)c1 13.1 µM (active)

Just for reference, ChEMBL document CHEMBL1201862 is where these values come from.
